# target.under.test: T1, recombinant human Nectin-4-His protein (human, UniProt Q96NY8 32-349)
# T1 construct: Rescreening antigen and bought ELISA antigen are treated as one molecule; also called human Nectin-4-His tagged; Ag1; not shown: His tag
# T1 sequence: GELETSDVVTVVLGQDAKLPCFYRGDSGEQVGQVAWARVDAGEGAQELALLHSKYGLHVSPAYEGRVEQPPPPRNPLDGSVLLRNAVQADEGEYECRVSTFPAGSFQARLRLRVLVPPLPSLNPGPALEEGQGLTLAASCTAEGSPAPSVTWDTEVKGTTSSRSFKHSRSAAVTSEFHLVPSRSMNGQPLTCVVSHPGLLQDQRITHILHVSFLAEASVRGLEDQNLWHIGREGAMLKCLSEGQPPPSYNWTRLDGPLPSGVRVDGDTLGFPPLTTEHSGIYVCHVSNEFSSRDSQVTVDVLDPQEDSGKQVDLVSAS
# assay.remarks: ELISA, hybridoma supernatant
This section presents binders with their documented ELISA signal values.
Write the value as a bare number.

Nectin-4 7 E8H/7 E8L (hybridoma supernatant) (antibody, V domains shown, Mouse antibody in hybridoma supernatant) VH: QVQLKQSGPGLVQPSQSLSITCTVSGFSLATYGVHWVRQSPGKGLEWLGVIWSGGSTDYNAAFISRLSISKDNSKSQVFFKMNSLQADDTAIYYCARNSHWYFDVWGTGTTVTVSS VL: DIVMTQSQKFMSTSVGDRVSVTCKASQNVVTNVAWYQQKPGQSPKALIYSASYRYSGVPDRFTGSGSGTDFTLTISHVQSEDLAEYFCHQYNNYPYTFGGGTKLEIK
3.11
Nectin-4 Hybridoma 6C8H/6C8L (hybridoma supernatant) (antibody, V domains shown, Mouse antibody in hybridoma supernatant) VH: QVQLKQSGPGLVQPSQSLSITCTVSGFSLSTYGVHWVRQSPGKGLEWLGVIWSGGSTDYNAAFISRLTISKDNSKSQIFFKMNSLQADDTAIYYCARMMSWYFDVWGTGTTVTVSS VL: DIVMTQSQKFMSTSVGDRVSVTCKASQNVVTNVAWYQQKPGQSPKALIYSASYRYSGVPDRFTGSGSGTDFTLTISNVQSEDLAEYFCQQYNSYPLTFGAGTKLELK
3.16

Ask: Please report ELISA signal for the following binder: Nectin-4 7H10H/7H10L (hybridoma supernatant) (antibody, V domains shown, Mouse antibody in hybridoma supernatant) VH: QVQLQQPGAELVKPGASVKLSCKASGYTFTTYWMHWVKQRPGRGLEWIGGIDPYGAHIKYNEMFKTKATLTVDKPSSTAYMQLSSLTSEDSAVYYCARGDYSNWWWTYWGQGTLVTVSA VL: DIVMTQSQKFMSTTVGDRVSITCKASQNVGTAVAWYQQIPGQSPKLLIYSASNRYTGVPDRFTGSGSGTDFTLTITNMQSEDLADYFCQHYSSYPWTFGGGTKLEIK
Reply: 3.26

Ask: Name the recorded ELISA signal of the binder listed here: Nectin-4 5D9H/5D9L (hybridoma supernatant) (antibody, V domains shown, Mouse antibody in hybridoma supernatant) VH: QVQLKQSGPGLVQPSQSLSITCTVSGFSLTNYGVHWVRQSPGKGLEWLGVIWSGGSTDYNAAFVSRLSISRDNSKSQVFFKMNSLQADDTAIYYCARSGKWYYFDYWGQGTTLTVSS VL: DIQMTQSPASLSVSVGETVTITCRASENIYSNLAWYQQKQGKSPQLLVYAATNLADGVPSRFSGSGSGTQYSLKINSLQSEDFGSYYCQHFWGTPTFGGGTKLEIK
Reply: 3.08

Ask: Give the reported value of ELISA signal for this record: Nectin-4 3C12H/3C12L (hybridoma supernatant) (antibody, V domains shown, Mouse antibody in hybridoma supernatant) VH: QVQLKQSGPGLVQPSQSLSITCTVSGFSLTTYGVHWVRQSPGKGLEWLGVIWSGGNTDYNAAFISRLSISKDNSKSQVFFKMNSLQADDTAIYYCARMTHWYFDVWGTGTTVTVSS VL: DIVMTQSQKFMSTTVGDRVSITCKASQNVVTAVAWYQQKPGQSPKLLIYSASNRYTGVPDRFTGSGSGTDFTLTISYMQSEDLADYFCQQYSSYPLTFGAGTKLELK
Reply: 3.2

Ask: Please indicate ELISA signal recorded for Nectin-4 12E11H/12E11L (hybridoma supernatant) (antibody, V domains shown, Mouse antibody in hybridoma supernatant) VH: QVQLKQSGPGLVQPSQSLSITCTVSGFSLTTYGVHWVRQSPGKGLEWLGVIWSGGSTDCNGAFISRLSIIKDNSKSQVFFKMNSLQADDTAIYYCARMTHWYFDVWGTGTTVTVSS VL: DIVMTQSQKFMSTTVGDRVSITCKASQNVNTAVAWYQQKPGQSPKLLIYSASYRYTGVPDRFTGSGSGTDFTLTISNMQSEDLADYFCQQYSNYPLTFGAGTKLELK
Reply: 3.21
